B1: TRIM43 (parent)
chain: RAQMIRNEYRKLHPVLHKEEKQHL

Variants of: B1
ASSAY_PROCEDURE: protein stability index of a GFP-peptide fusion (GPS, HEK-293T) (PSI 1-6); higher = more stable;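 further: lentivirally expressed fusions sorted by FACS into six bins by GFP to DsRed ratio, PSI derived from sequencing read proportions per bin multiplied by bin number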
TEST_CONTEXT: c terminus: a fixed tail appended
ASSAY_READOUT: protein stability index
Output spec: single numeric token, no unit.

P14E : 3.28

Input line: Reported protein stability index, variant Y9K : ____
Output line: 3.65

Input line: Any idea what its protein stability index is? The variant is H13N
Output line: 3.35

Sourced from the supplement of paper PMC10567573
